- testedTarget: human CB1 receptor (Homo sapiens, UniProt P21554)
- Construct: expressed in transfected cells; host or cells: SK-N-MC cells, stably transfected with pcDNA3 CB-1 (human); semi-purified membrane pellet
- Sequence (P21554 whole entry): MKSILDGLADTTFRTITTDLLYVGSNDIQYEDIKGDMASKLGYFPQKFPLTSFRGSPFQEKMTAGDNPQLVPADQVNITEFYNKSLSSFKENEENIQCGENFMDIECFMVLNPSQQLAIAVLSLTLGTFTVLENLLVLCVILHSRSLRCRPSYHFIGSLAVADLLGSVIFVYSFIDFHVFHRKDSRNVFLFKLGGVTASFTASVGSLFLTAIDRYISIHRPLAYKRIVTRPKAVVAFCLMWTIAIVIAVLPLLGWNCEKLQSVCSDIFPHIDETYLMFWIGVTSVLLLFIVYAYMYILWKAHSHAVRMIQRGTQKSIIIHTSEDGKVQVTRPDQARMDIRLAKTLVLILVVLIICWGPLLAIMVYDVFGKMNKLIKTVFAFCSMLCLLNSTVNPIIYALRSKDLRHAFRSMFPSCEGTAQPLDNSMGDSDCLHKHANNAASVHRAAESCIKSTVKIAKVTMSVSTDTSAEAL
- protocol: biochemical
- Format: binding
testReadout: IC50 (nM)
The answer is to be given in nM; state only the numeric part.

>>> print(df.to_string())
                                   compound  unitslabel  reportedvalue
0  O=C(NN1CCCC1)c1nn(-c2ccc(Cl)cc2Cl)c2c1CCC/C2=C\c1ccco1          nM             43

Quick note, IC50 for CCOC(=O)[C@H]1C2CCC(C2)[C@H]1NC(=O)C(C)(C)Cc1nn(C2CCCCC2)c2c1CCCC2 (stereo partly shown) landed at 19700

Quick note, IC50 for C[C@@H]1[C@@H](NC(=O)c2nn(C3CCCCC3)c3c2CCCC3)C[C@H]2C[C@@H]1C2(C)C landed at 2800

Quick note, IC50 for C[C@H](NC(=O)c1nn(-c2ccc(Cl)cc2Cl)c2c1CCCC2=Cc1ccc(F)cc1)c1ccccc1 landed at 19

Quick note, IC50 for COC(=O)C(Cc1ccc(O)c(O)c1)NC(=O)c1nn(Cc2ccccc2)c2c1CCCC2 (stereo not shown) landed at 700

Quick note, IC50 for C[C@@H](NC(=O)c1nn(C2CCCCC2)c2c1CCCC2)C1CCCCC1 landed at 100

Quick note, IC50 for CCC1CCCc2c(C(=O)NC3C4(C)CCC(C4)C3(C)C)nn(-c3ccc(F)cc3)c21 (stereo not shown) landed at 60

Quick note, IC50 for CC12CCC(C1)C(C)(C)C2NC(=O)c1nn(-c2ccc(Cl)cc2Cl)c2c1CCCC2 (stereo not shown) landed at 5.7

Quick note, IC50 for CC1CCCC(C)N1NC(=O)c1nn(-c2ccc(Cl)cc2Cl)c2c1CCC/C2=C\c1ccc(Cl)s1 (stereo not shown) landed at 14

Quick note, IC50 for CCOC(=O)[C@@H]1CCCC[C@@H]1NC(=O)c1nn(-c2ccc(F)cc2)c2c1CCCC2 landed at 58

Quick note, IC50 for O=C(NN1CCCCCC1)c1nn(-c2ccc(Cl)cc2Cl)c2c1CCCC2=Cc1ccc(F)cc1 landed at 8

Quick note, IC50 for CCOC(=O)C1CCc2c(c(C(=O)NC3C4CC5CC(C4)CC3C5)nn2Cc2ccccc2)C1 (stereo not shown) landed at 7.9

Quick note, IC50 for CCOC(=O)[C@@H]1C2C=CC(C2)[C@@H]1NC(=O)c1nn(Cc2ccccc2)c2c1CCCC2 (stereo partly shown) landed at 97

Quick note, IC50 for CC1CCCCC1NC(=O)c1nn(C2CCCCC2)c2c1CCCC2 (stereo not shown) landed at 20

Quick note, IC50 for O=C(NC1C2CC3CC(C2)CC1C3)c1nn(C2CCCCC2)c2c1CC(NC(=O)N1CCOCC1)CC2 (stereo not shown) landed at 1840

Quick note, IC50 for CCOC(=O)C1CCc2c(C(=O)NC3C4CC5CC(C4)CC3C5)nn(Cc3ccccc3)c2C1 (stereo not shown) landed at 10

* * *

- testedTarget: human CB2 receptor (Homo sapiens)
- Sequence (P34972 whole entry): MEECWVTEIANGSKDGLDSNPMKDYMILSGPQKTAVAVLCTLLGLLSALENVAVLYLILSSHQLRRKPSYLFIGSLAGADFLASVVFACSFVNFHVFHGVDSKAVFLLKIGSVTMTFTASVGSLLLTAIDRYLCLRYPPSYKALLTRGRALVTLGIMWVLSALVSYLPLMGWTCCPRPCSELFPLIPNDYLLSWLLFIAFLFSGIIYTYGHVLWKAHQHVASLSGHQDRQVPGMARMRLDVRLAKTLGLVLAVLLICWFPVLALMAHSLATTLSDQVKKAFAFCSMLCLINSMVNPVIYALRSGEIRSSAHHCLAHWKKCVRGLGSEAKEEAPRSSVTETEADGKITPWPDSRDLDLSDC
- protocol: Binding assay, cannabinoid CB2 receptor ([3H]-CP-55,940 displacement)
- protocolConditions: Cannabinoid CB2 Receptor Binding IC50, human CB2 receptor, SK-N-MC cell membranes, radioligand CP-55,940 0.2 nM
// pIC50 lookup, one value per entry
For clarity, pIC50 is expressed as the negative log10 of concentration in mol/L.

Quick note, pIC50 for CCOC(=O)C1CCc2c(c(C(=O)N[C@H](C)C3CCCCC3)nn2Cc2ccccc2)C1 (some centres unmarked) landed at 6.40
